# test-name: activity coefficient (dimensionless); of the first substance listed, at infinite dilution; xn = mol fraction of the nth substance listed
# condition-parameters: 318.15 K; 101 kPa; Liquid; Chromatography; x1 = 0
readout-label: activity coefficient

Consider the worked cases shown below.
>>> endpoint_result("C#CCCCC [1-hexyne] + CCCCCC[n+]1ccc2ccccc2c1.N#C[S-]")
3.64
>>> endpoint_result("CC1CCCCC1 [methylcyclohexane] + CCCCCC[n+]1ccc2ccccc2c1.N#C[S-]")
21.5

[A] C1CCCCCCC1 [cyclooctane] + CCCCCC[n+]1ccc2ccccc2c1.N#C[S-]
[B] CCCCCCCC [octane] + CCCCCC[n+]1ccc2ccccc2c1.N#C[S-]
Req: For the two items A and B , which reports the higher activity coefficient value? Provide the label of your selected option as the answer.
Resp: B
(B: 58, A: 17.5)
